GI50: recorded values
- Tested on: SK-MEL-2
- Protocol text: NCI tumour cell line growth inhibition, 48 h
The source made the active and inactive calls. No stated cut-off is given here; in the data, active = GI50 up to about 1.1 µM and inactive = higher. *1 amine or outer side, *2 acyl side, *3 side chain or, on linkers, in order; H or OH if unused. Where a SMILES comes first, the peptide text is derived from it. [ ]: non-standard residue; d: D form. The star is where a group is joined. ξ: configuration not given here. X53 = CC(C)C[C@H](N[*:1])C1=N[C@H](C(=O)[*:2])CS1; Ile(3ξ) = CCC(C)[C@H](N)C(=O)O; Allyl(1,1-Me2) = C=CC(C)(C)*
Reported property: GI50

Compound	Assay system	Reported property	Recorded result
CC(=O)O[C@H]1CC[C@@]2(C)C(=CC[C@H]3C(CC#N)[C@@](C)(C#N)CCC32)C1 (stereo partly drawn)	SK-MEL-2	GI50	> 100 µM (inactive)
CO[C@H]1SC[C@H](OC(C)=O)[C@H](OC(C)=O)[C@H]1OC(C)=O	SK-MEL-2	GI50	> 100 µM (inactive)
COC(=O)C1C(O)C(C)C(O)C(C)(O)C=C(C)C2=C3C(=C(C)C(=O)c4c(O)c(c(C)c(OC(C)=O)c43)NC(=O)C(C)=C/C=C\C(C)(O)C(O)C(C)C1O)OCO2 (stereo not drawn)	SK-MEL-2	GI50	22.9 µM (inactive)
O=c1[nH]nc(-c2ccccc2)n1/N=C/c1ccccc1O	SK-MEL-2	GI50	> 100 µM (inactive)
CCOC(=O)c1c(/C=N\Nc2ccccc2)nc2ccccc2c1-c1ccccc1	SK-MEL-2	GI50	40.8 µM (inactive)
Cc1c(Cl)cccc1NC(=O)/C(Cl)=C(\Cl)C(=O)O	SK-MEL-2	GI50	19.8 µM (inactive)
C=CC(C)(C)OC[C@@H]1NC(=O)CNC(=O)[C@@H]2CCCN2C(=O)[C@H](C(C)CC)NC(=O)[C@@H]2CSC(=N2)[C@H](CC(C)C)NC1=O (stereo partly drawn) (cyclo(GS(Allyl(1,1-Me2))[X53][Ile(3ξ)]P))	SK-MEL-2	GI50	> 100 µM (inactive)
Clc1ccccc1-c1nn2c(CCCCCCCCc3nnc4sc(-c5ccccc5Cl)nn34)nnc2s1	SK-MEL-2	GI50	> 100 µM (inactive)
